All values here come from the supplement of paper PMC7125110.

B1: glmS ribozyme (parent)
chain: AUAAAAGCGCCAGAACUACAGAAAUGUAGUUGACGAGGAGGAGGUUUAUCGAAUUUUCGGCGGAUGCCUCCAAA

variants of: B1; experiment: KM; higher = weaker cofactor use; RNA array; details: with glucosamine-6-phosphate
Some variants, each annotated with its measured log10(KM).
measure name: log10(KM) (log10 of the value in µM)

- mutation code: "G41A U46G"
  observed measurement: 3.31
- mutation code: "G29U U46A"
  observed measurement: 3.40
- mutation code: "C16U C68G"
  observed measurement: 2.49
- mutation code: "A15C C67U"
  observed measurement: 2.94
- mutation code: "A39U U55A"
  observed measurement: 3.76
- mutation code: "A6C U54C"
  observed measurement: 3.32
- mutation code: "A6U C71A"
  observed measurement: 3.24
- mutation code: "C16G U54A"
  observed measurement: 3.27
- mutation code: "A15C G32C"
  observed measurement: 3.52
- mutation code: "G29U U31A"
  observed measurement: 3.51
- mutation code: "A39C G66C"
  observed measurement: 3.44
- mutation code: "A12U C68G"
  observed measurement: 2.80
- mutation code: "C16G U30A U65G"
  observed measurement: 3.62
- mutation code: "U46A U47A"
  observed measurement: 3.40
- mutation code: "U49G G66A"
  observed measurement: 3.79
- mutation code: "A52G U54G"
  observed measurement: 3.49
- mutation code: "A14U A33C"
  observed measurement: 3.21
- mutation code: "A14C U47A"
  observed measurement: 3.44
- mutation code: "A12C A14C"
  observed measurement: 3.79
- mutation code: "A6G U54A"
  observed measurement: 3.20
- mutation code: "A15U U45A"
  observed measurement: 3.51
